Target: EGFR (D746-750/C797S) (Homo sapiens, UniProt P00533, C797S/DEL746-750)
Sequence (P00533 with tags, fused parts or gaps DEL746-750/C797S): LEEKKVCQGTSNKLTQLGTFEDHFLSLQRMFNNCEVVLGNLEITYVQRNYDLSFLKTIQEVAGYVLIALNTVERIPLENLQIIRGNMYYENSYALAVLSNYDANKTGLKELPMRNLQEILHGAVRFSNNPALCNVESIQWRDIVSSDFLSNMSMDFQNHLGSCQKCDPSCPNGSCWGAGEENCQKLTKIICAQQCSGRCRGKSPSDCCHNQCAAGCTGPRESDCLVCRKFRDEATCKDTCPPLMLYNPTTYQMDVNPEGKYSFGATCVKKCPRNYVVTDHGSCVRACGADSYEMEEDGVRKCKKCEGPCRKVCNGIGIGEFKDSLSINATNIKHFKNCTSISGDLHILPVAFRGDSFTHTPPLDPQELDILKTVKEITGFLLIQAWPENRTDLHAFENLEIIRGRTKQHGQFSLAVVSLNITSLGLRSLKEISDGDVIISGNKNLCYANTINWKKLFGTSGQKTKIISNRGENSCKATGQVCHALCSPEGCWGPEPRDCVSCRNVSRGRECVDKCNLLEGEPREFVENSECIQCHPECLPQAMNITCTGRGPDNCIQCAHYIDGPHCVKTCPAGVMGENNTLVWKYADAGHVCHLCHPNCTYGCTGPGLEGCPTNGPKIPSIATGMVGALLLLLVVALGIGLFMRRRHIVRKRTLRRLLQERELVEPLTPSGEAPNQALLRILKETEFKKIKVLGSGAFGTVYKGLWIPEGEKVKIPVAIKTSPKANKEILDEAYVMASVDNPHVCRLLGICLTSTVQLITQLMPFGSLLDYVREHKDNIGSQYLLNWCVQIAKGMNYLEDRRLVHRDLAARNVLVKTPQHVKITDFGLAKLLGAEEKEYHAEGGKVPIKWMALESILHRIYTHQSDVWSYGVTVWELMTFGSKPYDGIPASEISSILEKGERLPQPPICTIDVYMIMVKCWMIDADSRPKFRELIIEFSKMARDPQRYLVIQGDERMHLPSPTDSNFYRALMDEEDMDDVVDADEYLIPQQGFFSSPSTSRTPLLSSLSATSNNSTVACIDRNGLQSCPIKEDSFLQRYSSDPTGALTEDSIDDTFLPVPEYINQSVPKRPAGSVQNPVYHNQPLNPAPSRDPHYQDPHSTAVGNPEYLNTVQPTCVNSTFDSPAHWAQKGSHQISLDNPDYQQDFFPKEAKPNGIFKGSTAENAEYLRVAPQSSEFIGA
Experiment: HotSpot radiometric kinase assay, inhibition of EGFR 746-750/C797S mutant
Type: biochemical
Conditions: 33P ATP, room temperature, 120 m
Protocol: Biochemical Assays for inhibition of wild-type and mutant EGFRs Briefly, specific kinase/substrate pairs along with required cofactors were prepared in reaction buffer; 20 mM HEPES pH 7.5, 10 mM […], 1 mM EGTA, 0.02% Brij35, 0.02 mg/ml BSA, 0.1 mM Na3VO4, 2 mM DTT, 1% DMSO. […]
pIC50: −log10 of the molar value.
Reported values of pIC50 for individual entries

{"mol": "CCOc1nn(CCO)c2c1/C=C/c1n[nH]c3cnc(cc13)-c1cnn(C)c1O[C@H](C)CN(C(C)C)C2", "target-or-test-system": "EGFR (D746-750/C797S) (Homo sapiens, UniProt P00533, C797S/DEL746-750)", "pIC50": 9.51}
{"mol": "CCN1Cc2c(c(C)nn2CCO)/C=C/c2n[nH]c3cnc(cc23)-c2c(C)nn(C)c2O[C@@H](C)C1", "target-or-test-system": "EGFR (D746-750/C797S) (Homo sapiens, UniProt P00533, C797S/DEL746-750)", "pIC50": 9.80}
{"mol": "CCOc1nn(CCO)c2c1/C=C/c1n[nH]c3cnc(cc13)-c1c(c(C)nn1C)OCCN(C)C2", "target-or-test-system": "EGFR (D746-750/C797S) (Homo sapiens, UniProt P00533, C797S/DEL746-750)", "pIC50": 8.43}
{"mol": "Cc1nn(CCO)c2c1/C=C/c1n[nH]c3c(C)nc(cc13)-c1cnn(C)c1O[C@@H](C)CN(C)C2", "target-or-test-system": "EGFR (D746-750/C797S) (Homo sapiens, UniProt P00533, C797S/DEL746-750)", "pIC50": 9.08}
{"mol": "Cc1nn(C)c2c1-c1cc3c(n[nH]c3c(C)n1)/C=C/c1c(OCC#N)nn([C@@H](C)CO)c1CN(C)C[C@H](C)O2", "target-or-test-system": "EGFR (D746-750/C797S) (Homo sapiens, UniProt P00533, C797S/DEL746-750)", "pIC50": 9.15}
{"mol": "CCOc1nn([C@@H](C)CO)c2c1/C=C/c1n[nH]c3cnc(cc13)-c1c(C)nn(C)c1OCCN(C)C2", "target-or-test-system": "EGFR (D746-750/C797S) (Homo sapiens, UniProt P00533, C797S/DEL746-750)", "pIC50": 8.88}
{"mol": "Cc1nn(C)c2c1-c1cc3c(n[nH]c3cn1)/C=C/c1c(OCC#N)nn(CCO)c1CN1CCC[C@@H]1CO2", "target-or-test-system": "EGFR (D746-750/C797S) (Homo sapiens, UniProt P00533, C797S/DEL746-750)", "pIC50": 9.64}
